Measured values drawn from patent US11149054B2 for this set.

// reported Emax for each item listed
targetDesc: GlunN1/GluN2A glutamate receptors (Homo sapiens (Human), UniProt Q05586+Q12879)
Sequence (Q12879 23-1464, other chains not shown): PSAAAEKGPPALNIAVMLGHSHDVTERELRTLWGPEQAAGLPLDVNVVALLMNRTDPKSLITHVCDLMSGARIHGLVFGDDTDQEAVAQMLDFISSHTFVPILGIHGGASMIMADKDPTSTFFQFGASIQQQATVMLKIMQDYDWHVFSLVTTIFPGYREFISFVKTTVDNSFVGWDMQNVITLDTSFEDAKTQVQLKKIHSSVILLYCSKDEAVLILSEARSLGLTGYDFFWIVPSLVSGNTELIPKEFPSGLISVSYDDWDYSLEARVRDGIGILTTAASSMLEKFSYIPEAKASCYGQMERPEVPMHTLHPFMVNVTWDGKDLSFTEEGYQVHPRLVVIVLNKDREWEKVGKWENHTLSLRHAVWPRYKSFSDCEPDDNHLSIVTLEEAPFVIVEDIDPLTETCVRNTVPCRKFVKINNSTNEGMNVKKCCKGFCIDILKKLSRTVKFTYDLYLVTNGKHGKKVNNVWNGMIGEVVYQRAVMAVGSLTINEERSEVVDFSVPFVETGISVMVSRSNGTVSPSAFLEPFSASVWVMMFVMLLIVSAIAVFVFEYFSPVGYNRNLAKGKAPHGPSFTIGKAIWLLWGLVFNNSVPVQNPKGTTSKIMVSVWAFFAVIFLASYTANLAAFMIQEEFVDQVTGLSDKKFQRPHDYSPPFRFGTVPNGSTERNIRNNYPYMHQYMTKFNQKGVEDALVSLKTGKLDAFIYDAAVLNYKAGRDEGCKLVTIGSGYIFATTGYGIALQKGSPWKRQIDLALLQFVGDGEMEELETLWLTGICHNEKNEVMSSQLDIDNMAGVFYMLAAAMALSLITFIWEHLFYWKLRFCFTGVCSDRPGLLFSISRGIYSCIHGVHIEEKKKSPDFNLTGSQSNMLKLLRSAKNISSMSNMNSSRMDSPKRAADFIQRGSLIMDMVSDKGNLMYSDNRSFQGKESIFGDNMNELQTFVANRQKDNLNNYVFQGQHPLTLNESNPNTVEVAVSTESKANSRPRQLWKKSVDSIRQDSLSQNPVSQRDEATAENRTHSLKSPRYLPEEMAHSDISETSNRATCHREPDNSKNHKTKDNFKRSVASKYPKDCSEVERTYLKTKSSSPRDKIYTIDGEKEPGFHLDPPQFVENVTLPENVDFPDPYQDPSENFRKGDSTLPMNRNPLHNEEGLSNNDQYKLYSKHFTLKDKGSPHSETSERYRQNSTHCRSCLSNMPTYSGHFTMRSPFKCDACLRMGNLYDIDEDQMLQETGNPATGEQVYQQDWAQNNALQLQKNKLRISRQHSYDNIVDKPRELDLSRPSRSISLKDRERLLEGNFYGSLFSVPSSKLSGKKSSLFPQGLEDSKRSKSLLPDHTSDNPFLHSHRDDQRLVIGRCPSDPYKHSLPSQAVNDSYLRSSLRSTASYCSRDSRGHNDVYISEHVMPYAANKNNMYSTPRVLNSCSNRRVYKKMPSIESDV
procedureText: Whole-cell patch clamp of mammalian cells (Ionworks Barracuda), positive allosteric modulation, GluN1/GluN2A
Assay type: cell-based
testParameters: HEK293 cells; % potentiation of current elicited with EC20 L-glutamate and 30 μM glycine; read-out: Avg Emax 2A (%)
Protocol: The measurements were performed using Ion Works Barracuda platform following this procedure: Electrophysiological Procedures: • a) Intracellular solution (mM): 50 mM CsCl, 90 mM CsF, 2 mM MgCl2, 5 mM EGTA, 10 mM HEPES. Adjust to pH 7.2 with CsOH. • b) Extracellular solution, HB-PS (composition in mM): NaCl, 137; KCl, 1.0; CaCl2), 5; HEPES, 10; Glucose, 10; pH adjusted to 7.4 with NaOH (refrigerated until use). • c) Holding potential: −70 mV, potential during agonist/PAM application: −40 mV. […]
Just the number in %, nothing appended.

Consider the compound C[C@H](CCC1(O)CCC(C)(C)CC1)[C@H]1CC[C@H]2[C@@H]3CC[C@H]4C[C@](O)(C(F)(F)F)CC[C@]4(C)[C@H]3CC[C@]12C and give its measured Emax.
29.9

Continuing:
Consider the compound C[C@H](CCC1(O)CCOC1)[C@H]1CC[C@H]2[C@@H]3CC[C@H]4C[C@](O)(C(F)(F)F)CC[C@]4(C)[C@H]3CC[C@]12C (some centres unmarked) and give its measured Emax.
347

Consider the compound C[C@H](CC[C@H](O)C1CCOCC1)[C@H]1CC[C@H]2[C@@H]3CC[C@H]4C[C@](O)(C(F)(F)F)CC[C@]4(C)[C@H]3CC[C@]12C and give its measured Emax.
77.2

Consider the compound CC[C@]1(O)CC[C@@]2(C)C(=CC[C@H]3[C@@H]4CC[C@H]([C@H](C)CC[C@H](O)c5ccccc5)[C@@]4(C)CC[C@@H]32)C1 and give its measured Emax.
138

Consider the compound CC[C@]1(O)CC[C@@]2(C)[C@@H](CC[C@@H]3[C@@H]2CC[C@]2(C)[C@@H]([C@H](C)CCC(O)c4ccccc4)CC[C@@H]32)C1 (some centres unmarked) and give its measured Emax.
253

* * *

// reported EC50 for each item listed
targetDesc: GlunN1/GluN2A glutamate receptors (Homo sapiens (Human), UniProt Q05586+Q12879)
procedureText: Whole-cell patch clamp of mammalian cells (Ionworks Barracuda), positive allosteric modulation, GluN1/GluN2A
Assay type: cell-based

Example results:
Record C[C@H](CCC(O)C(C)(C)C)[C@H]1CC[C@H]2[C@@H]3CC=C4C[C@](O)(C(F)(F)F)CC[C@]4(C)[C@H]3CC[C@]12C (stereo partly drawn) [Compound 2500] : what is its EC50 with GlunN1/GluN2A glutamate receptors (Homo sapiens (Human), UniProt Q05586+Q12879)?
63.3 nM

Record C[C@H](CC[C@](C)(O)C(F)(F)F)[C@H]1CC[C@H]2[C@@H]3CC[C@H]4C[C@](O)(C(F)(F)F)CC[C@]4(C)[C@H]3CC[C@]12C [Compound 4] : what is its EC50 with GlunN1/GluN2A glutamate receptors (Homo sapiens (Human), UniProt Q05586+Q12879)?
201 nM

Kindly consider the entry below.
Record C[C@H](CCC1(O)CCC(F)(F)CC1)[C@H]1CC[C@H]2[C@@H]3CC=C4C[C@](O)(C(F)(F)F)CC[C@]4(C)[C@H]3CC[C@]12C [Compound 2392] : what is its EC50 with GlunN1/GluN2A glutamate receptors (Homo sapiens (Human), UniProt Q05586+Q12879)?
104 nM
